target: SHP2-C SH2; assay: SH2 binding enrichment of the phosphorylated peptide, bacterial display (enrichment ratio); higher = better substrate or ligand; peptides without Tyr show the background
assay_endpoint: SH2 binding enrichment

residue_string: SHRQDYLVGNK [GSTA1_Y147_G144R]
system: SHP2-C SH2
SH2 binding enrichment: 0.802
//
residue_string: CRIELYRVVES [IGFBP1_Y181]
system: SHP2-C SH2
SH2 binding enrichment: 0.653
//
residue_string: CTSIHYNYMCN [TP53_Y234_T231S]
system: SHP2-C SH2
SH2 binding enrichment: 2.73
//
residue_string: PAGSGYPAFLG [ATP6V1A_Y374_D371G_YF]
system: SHP2-C SH2
SH2 binding enrichment: 0.778
//
residue_string: HFGCVYRGTLL [MET_Y1093_H1094R]
system: SHP2-C SH2
SH2 binding enrichment: 0.963
//
residue_string: FPMLNYKDIRK [CFAP221_Y798]
system: SHP2-C SH2;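 also: peptide library displayed on the E. coli surface as eCPX fusions, selected cells deep-sequenced, score is each peptide's frequency after selection divided by its frequency in the input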
SH2 binding enrichment: 0.635

P. QQLDEYQKLLD [LMNA_Y359_E361K]
Q. FRQLPYCPSVE [CTNND2_Y508_Q507P_YF]
R. SHNKFYMLVAH [MFSD8_Y134_R139H_YF]
## Task Order field: SH2 binding enrichment | Direction: descending (largest first) As an answer, provide the labels arranged in the order called for.
## Result R, P, Q
(R: 1.28, P: 0.724, Q: 0.472)

1. WISNRSLDFSS [PRPH2_Y184_Y184S]
2. VGSEDYGWDLT [SPTAN1_Y1792_R1794W]
3. SLAARYFNWVC [FLT4_Y1230_S1235C_YF]
## Task Provide the items ranked by increasing SH2 binding enrichment. As an answer, provide the labels arranged in the order called for.
## Result 1, 2, 3
(1: 0.529, 2: 0.852, 3: 1.59)

Reference for the values: the supplement of paper PMC10065799
